test system: TK-10; experiment: NCI tumour cell line growth inhibition, 48 h
Active and inactive are the calls of the source. Rule as the data show it: active = GI50 up to about 1.1 µM and inactive = higher.
endpoint.name: GI50

Value sought: GI50, system TK-10, item "CCOC(=O)/C=C/[C@H](O[Si](CC)(CC)CC)C(C)(C)C" . Result: > 100 µM (inactive)

Value sought: GI50, system TK-10, item CN(C)C(=O)C(F)(F)C(c1ccc(C(F)(F)F)cc1)C1C(=O)N(C)C(=O)N(C)C1=O (stereo unspecified) . Result: > 100 µM (inactive)

Value sought: GI50, system TK-10, item "O=C(O)Cn1ccc(=O)c2cc([N+](=O)[O-])ccc21" . Result: > 100 µM (inactive)

Value sought: GI50, system TK-10, item O=C1CSC(c2ccc([N+](=O)[O-])cc2)N1c1nc(-c2ccc3c(c2)CCCC3)cs1 (stereo unspecified) . Result: > 100 µM (inactive)

Continuing:
Value sought: GI50, system TK-10, item O=C1C2c3[nH]c4ccccc4c3C3CCCCC3C2C(=O)N1c1ccccc1 (stereo unspecified) . Result: 46.5 µM (inactive)

Value sought: GI50, system TK-10, item "CC(=O)/C=C(/C=N/O)c1ccccc1" . Result: > 100 µM (inactive)

---

system: HCC 2998; test: NCI tumour cell line growth inhibition, 48 h
Activity calls are given as the source filed them. Rule as the data show it: active = GI50 up to about 1.1 µM and inactive = higher.
endpoint.name: GI50

Solved cases below.
Value sought: GI50, system HCC 2998, item COc1ccc(COCC[C@H](C)OC2OC(CO[Si](C)(C)C(C)(C)C)C(O)C(O)C2O)cc1 (some centres undefined) . Result: > 100 µM (inactive)

Value sought: GI50, system HCC 2998, item CC(C)C1CNC(=O)C2(/C=N/C(C(C)C)CNC(=O)C3(/C=N/1)CCCO3)CCCO2 (centres undefined) . Result: > 10 µM (inactive)

Value sought: GI50, system HCC 2998, item "O=[N+]([O-])c1ccc(Sc2c3ccccc3nc3ccccc23)cc1" . Result: > 100 µM (inactive)

Value sought: GI50, system HCC 2998, item O=C(OC1CCC(=C2SCCCS2)[C@H]1C1SCCCS1)c1ccccc1 (some centres undefined) . Result: > 100 µM (inactive)

Value sought: GI50, system HCC 2998, item "O=C1Nc2ccc(S(=O)(=O)N(CCO)CCO)cc2/C1=C1/Nc2ccccc2C1=O" . Result: > 100 µM (inactive)

Value sought: GI50, system HCC 2998, item "N#C/C(C(=O)Nc1ccccc1)=C(/N)N1CCOCC1" . Result: > 100 µM (inactive)

Value sought: GI50, system HCC 2998, item "Cc1ccc(S(=O)(=O)N2CCC(=O)c3cc(Br)ccc32)cc1" . Result: 24 µM (inactive)

Value sought: GI50, system HCC 2998, item Cc1ccc(NC(=O)CC2C(=O)Nc3ccccc3[S+]2[O-])cc1C (centres undefined) . Result: > 100 µM (inactive)

Continuing:
Value sought: GI50, system HCC 2998, item O=c1ncccn1C1OC(CO)C(O)C1O (centres undefined) . Result: > 100 µM (inactive)

Value sought: GI50, system HCC 2998, item "O=C1C(NCCc2cc(Cl)c(O)c(Cl)c2)=CC(=O)c2[nH]cnc21" . Result: 38.8 µM (inactive)

Value sought: GI50, system HCC 2998, item "CCOC(=O)C1=CCOc2cc(N(C)C)ccc21" . Result: > 100 µM (inactive)

Value sought: GI50, system HCC 2998, item "CN(C)c1nncc2[nH]nnc12" . Result: > 100 µM (inactive)

Value sought: GI50, system HCC 2998, item "COc1cc(-c2c[nH]c3ccccc23)nc(-c2c[nH]c3ccccc23)n1" . Result: 4.22 µM (inactive)

Value sought: GI50, system HCC 2998, item "CC1=NN(c2nc(N)nc(/C(C#N)=C\c3cccc([N+](=O)[O-])c3)n2)C(C)(C)C1" . Result: 12.2 µM (inactive)
